system: CRBN-DDB1 (Homo sapiens (Human), UniProt Q96SW2)
Sequence (Q96SW2 whole entry): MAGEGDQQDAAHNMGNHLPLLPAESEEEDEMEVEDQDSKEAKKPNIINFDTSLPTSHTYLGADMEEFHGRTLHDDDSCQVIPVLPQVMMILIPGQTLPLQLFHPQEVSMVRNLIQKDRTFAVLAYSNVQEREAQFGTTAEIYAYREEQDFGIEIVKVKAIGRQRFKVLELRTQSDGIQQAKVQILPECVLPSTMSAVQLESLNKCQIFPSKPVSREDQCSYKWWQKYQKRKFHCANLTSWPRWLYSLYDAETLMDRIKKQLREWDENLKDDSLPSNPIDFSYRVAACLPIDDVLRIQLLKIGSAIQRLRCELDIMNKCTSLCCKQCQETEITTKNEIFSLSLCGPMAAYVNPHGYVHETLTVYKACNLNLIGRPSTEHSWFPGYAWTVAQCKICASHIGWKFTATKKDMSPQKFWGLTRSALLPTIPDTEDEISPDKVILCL
Sequence (Q16531 whole entry partner): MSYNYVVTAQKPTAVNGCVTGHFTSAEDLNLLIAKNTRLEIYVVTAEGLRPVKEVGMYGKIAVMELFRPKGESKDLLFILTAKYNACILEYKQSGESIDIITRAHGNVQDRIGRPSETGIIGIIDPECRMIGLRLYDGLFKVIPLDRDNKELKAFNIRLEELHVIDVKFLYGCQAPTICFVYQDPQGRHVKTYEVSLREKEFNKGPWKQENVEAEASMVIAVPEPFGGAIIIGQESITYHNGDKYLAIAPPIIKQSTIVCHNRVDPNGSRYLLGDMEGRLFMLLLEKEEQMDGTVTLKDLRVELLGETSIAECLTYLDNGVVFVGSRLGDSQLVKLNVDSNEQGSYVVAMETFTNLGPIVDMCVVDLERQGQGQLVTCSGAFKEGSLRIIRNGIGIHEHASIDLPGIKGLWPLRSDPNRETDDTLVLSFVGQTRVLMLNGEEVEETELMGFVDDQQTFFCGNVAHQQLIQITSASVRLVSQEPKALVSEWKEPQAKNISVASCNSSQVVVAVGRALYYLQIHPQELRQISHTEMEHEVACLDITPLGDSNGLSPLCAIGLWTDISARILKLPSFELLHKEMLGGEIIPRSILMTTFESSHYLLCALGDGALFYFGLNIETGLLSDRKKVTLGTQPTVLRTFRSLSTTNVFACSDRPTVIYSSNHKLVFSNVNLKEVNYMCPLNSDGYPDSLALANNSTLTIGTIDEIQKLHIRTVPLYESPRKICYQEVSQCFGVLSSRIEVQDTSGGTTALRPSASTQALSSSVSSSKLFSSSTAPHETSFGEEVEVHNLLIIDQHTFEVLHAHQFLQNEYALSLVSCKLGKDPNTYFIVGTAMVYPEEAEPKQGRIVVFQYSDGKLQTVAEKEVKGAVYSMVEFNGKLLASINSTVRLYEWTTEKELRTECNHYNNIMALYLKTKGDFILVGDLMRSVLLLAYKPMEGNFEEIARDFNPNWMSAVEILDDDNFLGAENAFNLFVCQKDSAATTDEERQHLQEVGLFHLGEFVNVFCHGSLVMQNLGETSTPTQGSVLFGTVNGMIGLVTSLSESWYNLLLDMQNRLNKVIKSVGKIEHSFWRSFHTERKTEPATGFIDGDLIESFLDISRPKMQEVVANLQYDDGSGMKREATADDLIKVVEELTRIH
protocol notes: Fluorescence polarization (FP) assay for compound ligand binding to CRBN-DDB1
test context: FP displacement of (−)-Thalidomide-Alexa Fluor or Pomalidomide-fluorescein probe; 400 nM CRBN-DDB1, 5 nM probe; Compounds of the Present Invention
measured parameter: Kd

[in] Provide CRBN-DDB1 (Homo sapiens (Human), UniProt Q96SW2) Kd reading for Cc1ccc(C#N)cc1NC1CCC(=O)NC1=O (stereo not drawn) .
[out] > 100 µM

[in] Provide CRBN-DDB1 (Homo sapiens (Human), UniProt Q96SW2) Kd reading for O=C1CCC(Nc2ccccc2F)C(=O)N1 (stereo not drawn) .
[out] < 10 µM

[in] Provide CRBN-DDB1 (Homo sapiens (Human), UniProt Q96SW2) Kd reading for CN1CCN(c2ccc(OC3CCC(=O)NC3=O)cc2)CC1 (stereo not drawn) .
[out] < 10 µM

[in] Provide CRBN-DDB1 (Homo sapiens (Human), UniProt Q96SW2) Kd reading for CN(c1cccc(Cl)c1)C1CCC(=O)NC1=O (stereo not drawn) .
[out] < 10 µM

[in] Provide CRBN-DDB1 (Homo sapiens (Human), UniProt Q96SW2) Kd reading for Cc1ccccc1NC1CCC(=O)NC1=O (stereo not drawn) .
[out] < 10 µM

[in] Provide CRBN-DDB1 (Homo sapiens (Human), UniProt Q96SW2) Kd reading for O=C1CCC(Nc2cccc(N3CCNCC3)c2)C(=O)N1 (stereo not drawn) .
[out] < 10 µM

###

system: CRBN-DDB1 (Homo sapiens (Human))
protocol notes: Fluorescence polarization (FP) assay for compound ligand binding to CRBN-DDB1
test context: FP displacement of (−)-Thalidomide-Alexa Fluor or Pomalidomide-fluorescein probe; 400 nM CRBN-DDB1, 5 nM probe; Compounds of the Present Invention
Protocol: Measuring compound ligand binding to CRBN-DDB1 was carried out using an established sensitive and quantitative in vitro fluorescence polarization (FP) based binding assay. […] Compounds were dispensed from serially diluted DMSO stock into black 384-well compatible fluorescence polarization plates using an Echo acoustic dispenser. Compound binding to CRBN-DDB1 was measured by displacement of either a (−)-Thalidomide-Alexa Fluor® or Pomalidomide-fluorescein conjugated probe dye. […]
pKd: −log10 of the molar value.
I'd be grateful if you could share measured pKd for these entries.

[in] Please list pKd recorded for the molecule COc1cc(NC2CCC(=O)NC2=O)cc(C(F)(F)F)c1 (stereo not shown)
[out] > 5.00

[in] Please list pKd recorded for the molecule CN(C1COC1)C1CCC(=O)NC1=O (stereo not shown)
[out] < 4.00

[in] Please list pKd recorded for the molecule N#Cc1cccc(NC2CCC(=O)NC2=O)c1 (stereo not shown)
[out] > 5.00

[in] Please list pKd recorded for the molecule CC(C)(C)OC(=O)N1CCC(c2ccc(NC3CCC(=O)NC3=O)cc2)CC1 (stereo not shown)
[out] > 5.00

[in] Please list pKd recorded for the molecule Cc1cccc(NC2CCC(=O)NC2=O)c1C#N (stereo not shown)
[out] > 5.00

[in] Please list pKd recorded for the molecule COc1ccc(Cl)c(NC2CCC(=O)NC2=O)c1 (stereo not shown)
[out] > 5.00

[in] Please list pKd recorded for the molecule COc1ccc(N(C)C2CCC(=O)NC2=O)cc1 (stereo not shown)
[out] > 5.00

[in] Please list pKd recorded for the molecule CC(C)(C)OC(=O)N1CCN(C2=CC(=O)NC2=O)CC1
[out] < 4.00

[in] Please list pKd recorded for the molecule O=C1CCC(Nc2cc(F)ccc2Cl)C(=O)N1 (stereo not shown)
[out] > 5.00

[in] Please list pKd recorded for the molecule CN(c1cccc(N2CCN(C(=O)OC(C)(C)C)CC2)c1)C1CCC(=O)NC1=O (stereo not shown)
[out] > 5.00
